Taken from PubChem BioAssay.

experiment: small molecules captured by biotinylated probe aFGF2 – biochemical, small-molecule microarray, fluorescence 635/667, stem cell growth factor project, primary screen (AID 1067); details: higher = more signal;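 note: measures binding of biotinylated aFGF2 protein to printed compounds on slides; z-score merges feature fluorescence and signal-to-noise across triplicate slides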
# composite z-score per entry

Compound: COCCOC(=O)N1C(=O)[C@@]2(c3cc(C#CCC(C(=O)OC)C(=O)OC)ccc31)[C@H](C(=O)Nc1nc3ccccc3s1)[C@H]1C(=O)O[C@H](c3ccccc3)[C@H](c3ccccc3)N1[C@@H]2c1ccc(O)cc1
composite z-score: 0.412
--
Compound: O=C1C2C=CC(C(O)c3ccc([N+](=O)[O-])cc3)N(Nc3ccccc3F)C2C(=O)N1c1ccccc1 (configuration not stated)
composite z-score: -0.0172
--
Compound: COCCOC(=O)N1C(=O)[C@@]2(c3ccccc31)[C@H](c1ccc(O)cc1)N1[C@H](c3ccccc3)[C@H](c3ccccc3)OC(=O)[C@H]1[C@@H]2C(=O)N1CCCCCCC1
composite z-score: 0.949
--
Compound: COc1ccc(NN2C(C(O)c3ccc(I)cc3)C=CC3C(=O)N(C4CCCCC4)C(=O)C32)cc1 (configuration not stated)
composite z-score: -0.0024
--
Compound: CO[C@H]1O[C@H](CO)[C@@H](OC(=O)Nc2ccccc2-c2ccccc2)[C@H](OC(=O)Nc2ccccc2)[C@H]1OC(=O)Nc1ccccc1
composite z-score: -0.0067
--
Compound: CCOC(=O)C1=CC[C@@H](c2ccc(OC)cc2)N(S(=O)(=O)c2ccc(C)cc2)[C@H]1c1ccc(C)cc1
composite z-score: -0.062
--
Compound: COc1ccc(C(O)C2C=CC3C(=O)NC(=O)C3N2Nc2ccc(Cl)cc2Cl)c2ccccc12 (configuration not stated)
composite z-score: -0.106
--
Compound: CN(C)CCCNC(=O)[C@@]1(C)c2ccccc2C(=O)N(Cc2ccc(OC(F)(F)F)cc2)[C@H]1c1ccc(CO)cc1
composite z-score: -0.0587
--
Compound: CC(C)NC(=O)[C@@]1(c2ccc([N+](=O)[O-])cc2)CC(=O)N(CC23CC4CC(CC(C4)C2)C3)[C@@H]1c1ccc(CO)cc1
composite z-score: 0.516
--
Compound: COc1cc(CO)cc(I)c1O[C@H]1C=C(C(=O)NCCO)C[C@@H](NC2CCCCCC2)[C@@H]1O
composite z-score: -0.0114
--
Compound: O=C(NCc1ccccc1)[C@@H]1c2ccccc2C(=O)N(Cc2ccc(OC(F)(F)F)cc2)[C@H]1c1ccc(CO)cc1
composite z-score: -0.0784
--
Compound: C=CCC(OC(C)=O)[C@@H]1[C@@H](N(Cc2cccc3ccccc23)C(=O)Cc2ccc(OC)cc2)c2cc(OCCCO)ccc2N1C(=O)Cc1ccc2ccccc2c1 (some centres not stated)
composite z-score: -0.14
--
Compound: COC(=O)[C@@]1(Cc2ccc(F)cc2)[C@H]2c3cc(C(=O)N4CCCC4)n(Cc4cc(F)cc5c4OCOC5)c3C[C@H]2CN1C(=O)c1ccccc1
composite z-score: 0.13
--
Compound: COC(=O)[C@@]1(Cc2ccc(OC)cc2)[C@H]2c3cc(C(=O)N(C)C)[nH]c3C[C@H]2CN1C(=O)c1ccccc1
composite z-score: 0.0992
--
Compound: C[C@@H]1ON(c2ccccc2)[C@H](c2ccccc2)[C@H]1C(=O)O
composite z-score: -0.085
--
Compound: COC(=O)[C@]1(Cc2ccccc2)N=C(c2ccc(OCCCO)cc2)O[C@@H]1c1ccccc1CN=[N+]=[N-]
composite z-score: -0.0266
--
Compound: CC(C)C(=C=CC[C@H](O)c1ccccc1OCCO)C[C@H](O)COCc1ccccc1
composite z-score: -0.136

###

Overview of reported z-score across a group of compounds:
assay: resazurin metabolic signal in HepG2 cells – cell-based, resazurin fluorescence, 24 h, PK04 Diversity Set, profiling panel (AID 1172); settings: HepG2 viability, higher = more signal; note: test concentration not given here

Compound: CN(C)C(=O)[C@]1(Cc2ccccc2)N=C(c2ccc(OCCCO)cc2)O[C@@H]1c1ccccc1CN=[N+]=[N-]
z-score: 0.432
//
Compound: [N-]=[N+]=Nc1ccccc1[C@@H]1OC(c2ccc(OCCCO)cc2)=N[C@]1(Cc1ccccc1)C(=O)NCCN1CCOCC1
z-score: -0.158
//
Compound: C=C(CCCC)/C(=C/C[C@H](OC(=O)c1ccncc1)c1cccc(OCCO)c1)c1cnc2ccccc2c1
z-score: -0.0769
//
Compound: COC(=O)[C@@]1(Cc2ccc(OC)cc2)[C@H]2c3cc(C(=O)N(C)C)[nH]c3C[C@H]2CN1C(=O)c1ccccc1
z-score: -0.576
//
Compound: C=CC1c2cc(O)c(OC)cc2CCN1C (centres undefined)
z-score: -0.582
//
Compound: COC(=O)[C@@]1(Cc2ccc(F)cc2)[C@H]2c3cc(C(=O)N(C)C)n(C)c3C[C@H]2CN1C(=O)c1ccccc1
z-score: -0.476
//
Compound: NC(=O)N1C(=O)C2C(C1=O)C1C=C(CCCO)C2C(c2ccc(CN3CCCC3)cc2)N1Cc1cc2c(cc1Br)OCO2 (centres undefined)
z-score: -0.766
//
Compound: CC1=C([C@H](O)CCc2ccccc2)[C@H](CO)n2c(=O)n(-c3ccccc3)c(=O)n2C1
z-score: 0.331
//
Compound: CC(C)(C)OC(=O)CC[C@]1(C(=O)NCC(O)CO)N=C(c2ccc(OCCCO)cc2)O[C@H]1c1ccccc1N=[N+]=[N-] (some centres undefined)
z-score: -0.108

###

assay: FRG1 expression reporter modulators in myotubes – cell-based, C2C12 myotubes, firefly/Renilla luciferase, luminescence, FRG1 inhibition for FSHD, primary screen (AID 1084); conditions: FRG1 promoter luciferase, higher = more signal, called active from +8 up or from −8 down

Smiles string: COc1cc(CO)cc(I)c1O[C@H]1C=C(C(=O)NCCO)C[C@@H](NC2CCCCCC2)[C@@H]1O
z-score: 0.999
--
Smiles string: C=C(COC)C(=O)CC[C@@H](OC(=O)c1ccccc1-c1ccccc1C(=O)O)c1ccc(OCCO)cc1
z-score: 2.6
--
Smiles string: CN(C)CCCNC(=O)[C@@]1(Cc2ccccc2I)c2ccccc2C(=O)N(C2CCCCC2)[C@H]1c1ccc(CO)cc1
z-score: -3.32

###

experiment: small molecules captured by biotinylated probe aFGF10 – biochemical, small-molecule microarray, fluorescence 635/667, stem cell growth factor project, primary screen (AID 1071); details: higher = more signal;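 note: score merges 667 nm spot intensity and signal to noise from triplicate slides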

Molecule: O=C1C[C@@](C(=O)NCc2ccccc2)(c2ccc([N+](=O)[O-])cc2)[C@@H](c2ccc(CO)cc2)N1C1CCCCC1
composite z-score: 0.104
//
Molecule: COC(=O)[C@@]1(Cc2ccc(OC)cc2)[C@H]2c3cc(C(=O)N4CCCC4)n(Cc4c(CO)[nH]cc(C)c4=O)c3C[C@H]2CN1C(=O)c1ccccc1
composite z-score: 0.505
//
Molecule: Cc1ccc(S[C@]2(C(=O)NC(C)C)CC(=O)N(C3CCCCC3)[C@@H]2c2ccc(CO)cc2I)cc1
composite z-score: 0.308
//
Molecule: COC(=O)C[C@H]1O[C@@]2(C[C@@H]1[Si](C)(C)C)C(=O)N(C)c1ccccc12
composite z-score: 0.487
//
Molecule: OCCCC1=CC(c2ccc(CN3CCCC3)cc2)N(Cc2cccc(OC(F)(F)F)c2)CC1 (stereo not given)
composite z-score: 0.0263
//
Molecule: COc1ccc(C(=O)Nc2cccc(CN3C(=O)[C@]4(O[C@H](CC(=O)N5Cc6ccccc6C[C@H]5CO)[C@@H]([Si](C)(C)c5ccc(OC)cc5)[C@@H]4C)c4ccccc43)c2)cc1
composite z-score: 0.426
//
Molecule: C[N+](C)(C)CCCCNC(=O)[C@H]1C[C@H]2C(=O)N[C@@H](Cc3ccccc3)C(=O)N2[C@H]1c1cccc(OCCO)c1
composite z-score: 1.21
//
Molecule: COC(=O)[C@@]1(Cc2ccc(F)cc2)[C@H]2c3cc(C(=O)N4CCCC4)n(CCc4ccccn4)c3C[C@H]2CN1C(=O)c1ccccc1
composite z-score: 0.124
//
Molecule: CC(C)N1C(=O)c2ccccc2[C@](C)(C(=O)NCC(F)(F)F)[C@@H]1c1ccc(CO)cc1
composite z-score: -1
//
Molecule: COC(=O)[C@@]1(Cc2ccc(OC)cc2)[C@H]2c3cc(C(=O)N4CCCC4)n(CCn4cc([N+](=O)[O-])nc4C)c3C[C@H]2CN1C(=O)c1ccccc1
composite z-score: 1.25
//
Molecule: C=CCC(OC(C)=O)[C@@H]1[C@@H](N(Cc2cc3ccccc3o2)C(=O)Cc2ccc(OC)cc2)c2cc(OCCCO)ccc2N1C(=O)c1ccc2ccccc2n1 (stereo not given in full)
composite z-score: 0.176
//
Molecule: O=C1c2ccccc2[C@@]2(Cc3ccccc3N(Cc3ccccc3)C2=O)[C@H](c2ccc(CO)cc2)N1Cc1ccccc1Cl
composite z-score: -0.127
//
Molecule: CCOC(=O)C1=CC[C@@H](c2ccc(OC)cc2)N(S(=O)(=O)c2ccc(C)cc2)[C@H]1CC
composite z-score: 0.398
//
Molecule: O=C1OCCC=C[C@H]2OC34C=CCN(c5ccc6ccccc6c5)C(=O)[C@H]3N(CCO)C(=O)[C@@H]4C12 (stereo not given in full)
composite z-score: -0.175
//
Molecule: CN(C)c1ccc(C(O)C2C=CC3C(=O)N(Cc4ccccc4)C(=O)C3N2n2cnnc2)cc1 (stereo not given)
composite z-score: 0.0521
